# PROTOCOL: yeast NALP1 reporter signal suppression – S. cerevisiae, luminescence, single concentration, NALP1 inhibitor project, confirmation (AID 488841);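 also: plate controls were DMSO in galactose medium for no effect and cells in plain SD medium for full effect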
# EXPERIMENTAL CONTEXT: S. cerevisiae NALP1/ASC/Caspase-1 reporter, beta-gal luminescence; at 10 µM
Among all 1,400 compounds or so, about 380 (27%) were called active.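 The calls were made as follows: active = mean inhibition above 50% across duplicate retests at 10 µM; inactive = the rest.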 The list shows a part of the results.
Outcomes: yes (1) (active), no (0) (inactive)

>  <COMPOUND>
O=C(N/N=C/c1ccc2c(c1)OCO2)c1cccs1

>  <CLASS NAME>
yes (1)

$$$$
>  <COMPOUND>
O=C1O/C(=C/c2ccccc2)c2ccccc21

>  <CLASS NAME>
yes (1)

$$$$
>  <COMPOUND>
O=C(CCSCc1cccc(Cl)c1)NCCc1ccccc1

>  <CLASS NAME>
no (0)

$$$$
>  <COMPOUND>
Cc1ccc(C(=O)NCCc2cccc(Cl)c2)cc1[N+](=O)[O-]

>  <CLASS NAME>
yes (1)

$$$$
>  <COMPOUND>
Cc1cc(C)c([C@@H]2C[C@H]3CN(C4CCCC4)C(=O)[C@]34CCCN24)c(-n2cccn2)c1

>  <CLASS NAME>
no (0)

$$$$
>  <COMPOUND>
COCCNC(=O)c1ccc(C)c(S(=O)(=O)Nc2ccc(C)cc2)c1

>  <CLASS NAME>
no (0)

$$$$
>  <COMPOUND>
Cc1ccc(C(=O)CCC(=O)O)cc1

>  <CLASS NAME>
no (0)

$$$$
>  <COMPOUND>
Cc1cccc(C(=O)NCc2ccc(S(N)(=O)=O)cc2)c1[N+](=O)[O-]

>  <CLASS NAME>
no (0)

$$$$
>  <COMPOUND>
COc1ccc(CCN(C)C2CC(=O)N(c3ccccc3)C2=O)cc1OC (stereo not given)

>  <CLASS NAME>
no (0)

$$$$
>  <COMPOUND>
O=C(CSCc1cccc(Cl)c1)Nc1ccccc1-c1ccccc1

>  <CLASS NAME>
no (0)

$$$$
>  <COMPOUND>
COC(=O)C1(C(C[N+](=O)[O-])c2ccc(C)cc2)C(=O)NCC1c1ccco1 (stereo not given)

>  <CLASS NAME>
no (0)

$$$$
>  <COMPOUND>
CN(C)S(=O)(=O)c1ccc(N2CCCC2)c(C(=O)Nc2nc3ccccc3s2)c1

>  <CLASS NAME>
no (0)

$$$$
>  <COMPOUND>
N#C/C(=C\c1ccc([N+](=O)[O-])o1)c1nc2ccccc2[nH]1

>  <CLASS NAME>
no (0)

$$$$
>  <COMPOUND>
O=C(COc1ccccc1Cl)NCCC1=CCCCC1

>  <CLASS NAME>
no (0)

$$$$
>  <COMPOUND>
O=C(NC(Nc1nc2ccc([N+](=O)[O-])cc2s1)(C(F)(F)F)C(F)(F)F)c1ccccc1Cl

>  <CLASS NAME>
yes (1)

$$$$
>  <COMPOUND>
Cc1ccc(Sc2nnc(Cc3ccccc3)c3ccccc23)cc1

>  <CLASS NAME>
no (0)

$$$$
>  <COMPOUND>
O=C1c2ccccc2-c2cccc(NS(=O)(=O)c3ccc(C(F)(F)F)cc3)c21

>  <CLASS NAME>
no (0)

$$$$
>  <COMPOUND>
S=C(NC1CCCCC1)NN(c1ccccc1)c1ccccc1

>  <CLASS NAME>
no (0)

$$$$
>  <COMPOUND>
CC1=CC(=O)C=C(C)C1=NOS(=O)(=O)c1ccccc1

>  <CLASS NAME>
yes (1)

$$$$
>  <COMPOUND>
Cc1cc(C(C)(C)C)cc(C)c1S(=O)(=O)N1CC(=O)Nc2ccccc21

>  <CLASS NAME>
no (0)

$$$$
>  <COMPOUND>
CN1CCC(Oc2ccc(Sc3ccccc3)cc2)CC1

>  <CLASS NAME>
no (0)

$$$$
>  <COMPOUND>
Cn1nc(NC(=O)C(C)(C)C)c2c(F)cccc21

>  <CLASS NAME>
no (0)

$$$$
>  <COMPOUND>
O=C(N/N=C/c1ccc2nccnc2c1)c1ccccc1O

>  <CLASS NAME>
no (0)

$$$$
>  <COMPOUND>
Cc1ccc(CSCCNC(=O)CSCc2ccc([N+](=O)[O-])cc2)cc1

>  <CLASS NAME>
yes (1)

$$$$
>  <COMPOUND>
OC(CNCCc1ccc(C(F)(F)F)cc1)COc1cccc2ccccc12 (stereo not given)

>  <CLASS NAME>
yes (1)

$$$$
>  <COMPOUND>
CCCC(=O)c1ccc(-c2ccccc2)cc1

>  <CLASS NAME>
yes (1)

$$$$
>  <COMPOUND>
N#C/C(=C/c1cccs1)c1nc2ccccc2[nH]1

>  <CLASS NAME>
yes (1)

$$$$
>  <COMPOUND>
Cc1[nH]n(-c2ccccc2)c(=O)c1C(C[N+](=O)[O-])c1ccc(Br)cc1 (stereo not given)

>  <CLASS NAME>
yes (1)

$$$$
>  <COMPOUND>
O=S(=O)(/C=C/c1ccccc1)NC1CCCCCCC1

>  <CLASS NAME>
yes (1)

$$$$
>  <COMPOUND>
CCOC(=O)C1=NN(C(=O)c2ccc(C)cc2)C(O)(c2ccc(Cl)cc2)C1 (stereo not given)

>  <CLASS NAME>
no (0)

$$$$
>  <COMPOUND>
O=S(=O)(CC(CN1CCCC1)N1CCCC1)c1ccc2ccccc2c1 (stereo not given)

>  <CLASS NAME>
no (0)

$$$$
>  <COMPOUND>
CC(NC(=O)Nn1cnnc1)(C(F)(F)F)C(F)(F)F

>  <CLASS NAME>
no (0)

$$$$
>  <COMPOUND>
COc1ccc(Nc2ccnc(Nc3ccc(OC)cc3)n2)cc1

>  <CLASS NAME>
yes (1)

$$$$
>  <COMPOUND>
OCCNc1c2ccccc2nc2c(F)c(F)c(F)c(F)c12

>  <CLASS NAME>
no (0)

$$$$
>  <COMPOUND>
O=C(O)c1ccc(S(=O)(=O)/N=C2\C=C(Nc3ccccc3F)C(=O)c3ccccc32)cc1

>  <CLASS NAME>
yes (1)

$$$$
>  <COMPOUND>
Brc1ccc2c(c1)OCCOCCOc1cc(Br)ccc1OCCOCCOCCO2

>  <CLASS NAME>
yes (1)

$$$$
>  <COMPOUND>
CC1=C/C(=N\OS(=O)(=O)c2ccccc2)C(C(C)C)=CC1=O

>  <CLASS NAME>
yes (1)

$$$$
>  <COMPOUND>
CC1CCC2C(=O)N(c3ccc(C(=O)Oc4cccc5cccnc45)cc3)C(=O)C2C1 (stereo not given)

>  <CLASS NAME>
no (0)

$$$$
>  <COMPOUND>
COc1cccc(CN2CCC(C(=O)N3CCN(c4ccccc4F)CC3)CC2)c1OC

>  <CLASS NAME>
no (0)

$$$$
>  <COMPOUND>
Cc1ccccc1Cn1c(=N)n(CC(=O)c2ccc([N+](=O)[O-])cc2)c2ccccc21

>  <CLASS NAME>
no (0)

$$$$
>  <COMPOUND>
Cn1c(/C(C#N)=C/C2CC=CCC2)nc2ccccc21 (stereo not given)

>  <CLASS NAME>
no (0)

$$$$
>  <COMPOUND>
Cc1cc2ccccn2c1C(C[N+](=O)[O-])c1ccc(N(C)C)cc1 (stereo not given)

>  <CLASS NAME>
no (0)

$$$$
>  <COMPOUND>
COCCN=C1Sc2nc3ccc(C)cc3cc2CN1Cc1ccco1

>  <CLASS NAME>
no (0)

$$$$
>  <COMPOUND>
O=C(CSc1ncn[nH]1)NC12CC3CC(CC(C3)C1)C2

>  <CLASS NAME>
no (0)

$$$$
>  <COMPOUND>
Cc1ccsc1/C=N/NC(=O)c1ccco1

>  <CLASS NAME>
no (0)

$$$$
